Values compiled from paper PMC9482650.

tested_target: T1, DFNB31_1, Q9P202
T1 sequence (Q9P202 135-233, limits assumed, looked up): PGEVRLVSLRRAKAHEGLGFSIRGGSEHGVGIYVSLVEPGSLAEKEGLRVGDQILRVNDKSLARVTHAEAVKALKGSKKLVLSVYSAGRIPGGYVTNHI
method_description: holdup assay
Set-up: key: below the threshold = too weak to quantify, mostly under pKd 3.1 to 4
measurement_setup: plain residues with an end cap or a label only (N-terminal biotin on a linker: ado-ado)

| binder | pKd |
| --- | --- |
| PSVYSRSQYV [CLDN8, P56748] | below the threshold |
| RSPVATATSC [DUSP5, Q16690] | below the threshold |
| NISARRFTLC [FAM167B, Q9BTA0] | below the threshold |
| SQDPKKPSRV [CBY2, Q8NA61] | below the threshold |
| SAGADSETHC [SLCO1B1, Q9Y6L6] | below the threshold |
| PSDSVGKDVF [EGLN1, Q9GZT9] | 3.49 |
| QQGLLPHSSC [TYRO3, Q06418] | below the threshold |
| DSEEELPTRL [GRK6, P43250] | below the threshold |
| PKSNSSKEYV [CLDN7, O95471] | below the threshold |
| RGKNRRQSIF [CDK18, Q07002] | below the threshold |
| EKPIDSETKM [SLC1A3, P43003] | 3.48 |
| NSTHNLKDYV [CLDN20, P56880] | below the threshold |
| EFKQTSSFLV [JAM1, Q9Y624] | below the threshold |
| TKDKVQETQI [LRRC4, Q9HBW1] | 5.43 |
| AKADAQESRL [PLCB2, Q00722] | 4.11 |
| KLQNPNQSVV [TYRP1, P17643] | 3.61 |
